Origin of values: patent US20250051350A1

# procedureDetails: in vitro
# Assay type: in vitro ADME
# conditionSet: mouse
# Experimental: Plasma protein binding assays were conducted in triplicate for compounds PT-2, PT-14, PT-28, and PT-30, with artesunate, DHA, and warfarin as comparators.
measure: recovery (%)

Solved cases (2 shown):
C[C@@H]1CC[C@H]2[C@@H](C)C(OC(=O)N3CC4(CCNC4=O)C3)O[C@H]3O[C@@]4(C)CC[C@@H]1[C@]32OO4 (stereo partly shown)	87.6
CC(=O)CC(c1ccccc1)c1c(O)c2ccccc2oc1=O (stereo not shown)	94.5

(1) C[C@H]1[C@H](OC(=O)CCC(=O)O)O[C@@H]2O[C@@]3(C)CC[C@H]4[C@H](C)CC[C@@H]1[C@@]24OO3 [artesunate]
(2) C[C@H]1[C@@H](O)OC2O[C@@]3(C)CC[C@H]4[C@H](C)CC[C@@H]1[C@@]24OO3 (stereo in doubt)
QUERY: Could you tell me which of these two has the smaller recovery figure? First: 1 Second: 2 // return label of chosen record
RESULT: 1
(1: 53.4%, 2: 105%)
